- System: Mus musculus
- test details: Neuroprotective activity in Mus musculus Swiss albino (mouse) model assessed as reduction in haloperidol-induced catalepsy at 100 mg/kg, ip administered 30 min before haloperidol challenge measured for 30 to 180 min
- Type: functional
- Set-up: scale not given: the % may be the effect or the level left
- assay setup: route intraperitoneal
Consider the following compounds and their measured Activity readings.
Give just the number in %; leave the unit off.

Problem: Please look up its Activity: `COc1ccccc1NC(=S)Nc1nc2c(ccc3ccccc32)s1`
Solution: 75.46

Problem: Please look up its Activity: `S=C(Nc1nc2c(ccc3ccccc32)s1)Nc1ccccc1Cl`
Solution: 39.14

Problem: Please look up its Activity: N[C@@H](Cc1ccc(O)c(O)c1)C(=O)O [LEVODOPA]
Solution: 65.64

----------
- System: Mus musculus
- test details: Neuroprotective activity in Mus musculus Swiss albino (mouse) model assessed as reduction in haloperidol-induced catalepsy at 100 mg/kg, ip administered 30 min before haloperidol challenge measured for 30 to 180 min
- Type: functional
- Design: scale not given: the % may be the effect or the level left
- assay setup: route intraperitoneal
Doc: threshold 60% (exclusive). Items with Activity beneath it return 1 (yes); others return 0 (no).

Example entries and their recorded answers appear below.
input smiles: COc1ccc(NC(=S)Nc2nc3c(ccc4ccccc43)s2)cc1
discrete label: 1 (yes)
//
input smiles: O=C(Nc1ccccc1)Nc1nc2c(ccc3ccccc32)s1
discrete label: 1 (yes)
//
input smiles: O=C(Nc1nc2c(ccc3ccccc32)s1)Nc1ccccc1F
discrete label: 1 (yes)
//
input smiles: COc1ccc(NC(=O)Nc2nc3c(ccc4ccccc43)s2)c(OC)c1
discrete label: 0 (no)
//
input smiles: COc1cc(NC(=O)Nc2nc3c(ccc4ccccc43)s2)cc(OC)c1OC
discrete label: 0 (no)

Problem: Report whether reported Activity is lower than 60% (strictly) for `O=C(Nc1nc2c(ccc3ccccc32)s1)Nc1ccccc1Br`
Solution: 1 (yes)

----------
Consider the following compounds and their measured Time readings.
- Tested on: Mus musculus
- test details: Neuroprotective activity in haloperidol-induced catalepsy Mus musculus Swiss albino (mouse) model assessed as mean descent time at 100 mg/kg, po administered 30 min before haloperidol challenge measured at 90 min post challenge
- Format: functional
Give just the number in s; leave the unit off.

compound: N[C@@H](Cc1ccc(O)c(O)c1)C(=O)O [LEVODOPA]
Time [s]: 99

Problem: Query for Mus musculus: what Time does the record show for `S=C(Nc1nc2c(ccc3ccccc32)s1)Nc1ccccc1Br` ?
Solution: 189

Problem: Query for Mus musculus: what Time does the record show for `COc1ccc(NC(=S)Nc2nc3c(ccc4ccccc43)s2)cc1` ?
Solution: 116

Problem: Query for Mus musculus: what Time does the record show for `O=C(Nc1nc2c(ccc3ccccc32)s1)Nc1ccccc1Cl` ?
Solution: 159

Problem: Query for Mus musculus: what Time does the record show for `O=[N+]([O-])c1ccc(NC(=S)Nc2nc3c(ccc4ccccc43)s2)cc1` ?
Solution: 199

Problem: Query for Mus musculus: what Time does the record show for O=C(CCCN1CCC(O)(c2ccc(Cl)cc2)CC1)c1ccc(F)cc1 [HALOPERIDOL] ?
Solution: 268

Problem: Query for Mus musculus: what Time does the record show for `COc1ccc(NC(=O)Nc2nc3c(ccc4ccccc43)s2)cc1` ?
Solution: 122

Problem: Query for Mus musculus: what Time does the record show for `S=C(Nc1ccc(Cl)cc1)Nc1nc2c(ccc3ccccc32)s1` ?
Solution: 198

Problem: Query for Mus musculus: what Time does the record show for `O=C(Nc1ccc(Cl)cc1)Nc1nc2c(ccc3ccccc32)s1` ?
Solution: 171

Problem: Query for Mus musculus: what Time does the record show for `O=[N+]([O-])c1ccccc1NC(=S)Nc1nc2c(ccc3ccccc32)s1` ?
Solution: 71

Problem: Query for Mus musculus: what Time does the record show for `Cc1ccccc1NC(=S)Nc1nc2c(ccc3ccccc32)s1` ?
Solution: 138

----------
Consider the following compounds and their measured Activity readings.
- System: Mus musculus
- test details: Neuroprotective activity in Mus musculus Swiss albino (mouse) model assessed as reduction in haloperidol-induced catalepsy at 100 mg/kg, ip administered 30 min before haloperidol challenge measured for 30 to 180 min
- Type: functional
- Design: scale not given: the % may be the effect or the level left
- assay setup: route intraperitoneal
Give just the number in %; leave the unit off.

input smiles: S=C(Nc1ccc(Br)cc1)Nc1nc2c(ccc3ccccc32)s1
Activity [%]: 35.27

Problem: Please look up its Activity: `S=C(Nc1nc2c(ccc3ccccc32)s1)Nc1ccccc1Br`
Solution: 30.96

Problem: Please look up its Activity: `O=[N+]([O-])c1ccccc1NC(=S)Nc1nc2c(ccc3ccccc32)s1`
Solution: 72.97

Problem: Please look up its Activity: `Fc1ccc(NC(=S)Nc2nc3c(ccc4ccccc43)s2)cc1`
Solution: 34.95

Problem: Please look up its Activity: `O=C(Nc1ccc(Oc2ccccc2)cc1)Nc1nc2c(ccc3ccccc32)s1`
Solution: 55.56

Problem: Please look up its Activity: `Cc1ccc(NC(=S)Nc2nc3c(ccc4ccccc43)s2)cc1`
Solution: 47.97

----------
- Tested on: Mus musculus
- test details: Neuroprotective activity in haloperidol-induced catalepsy Mus musculus Swiss albino (mouse) model assessed as mean descent time at 100 mg/kg, po administered 30 min before haloperidol challenge measured at 90 min post challenge
- Format: functional
Consider the following compounds and their measured Time readings.
Give just the number in s; leave the unit off.

Previously resolved entries follow.
input smiles: O=C(Nc1nc2c(ccc3ccccc32)s1)Nc1cc(C(F)(F)F)ccc1Cl
system tested: Mus musculus
unit text: s
Time: 141
--
input smiles: Cc1ccc(NC(=S)Nc2nc3c(ccc4ccccc43)s2)cc1
system tested: Mus musculus
unit text: s
Time: 136
--
input smiles: O=C(Nc1nc2c(ccc3ccccc32)s1)Nc1ccccc1F
system tested: Mus musculus
unit text: s
Time: 188

Problem: Please look up its Time: `O=C(Nc1ccc([N+](=O)[O-])cc1)Nc1nc2c(ccc3ccccc32)s1`
Solution: 176

Problem: Please look up its Time: `O=C(Nc1nc2c(ccc3ccccc32)s1)Nc1ccccc1Br`
Solution: 145

Problem: Please look up its Time: `O=C(Nc1ccccc1)Nc1nc2c(ccc3ccccc32)s1`
Solution: 156

Problem: Please look up its Time: `Cc1ccccc1NC(=O)Nc1nc2c(ccc3ccccc32)s1`
Solution: 138

----------
Consider the following molecules and their measured Activity readings.
- System: Mus musculus
- test details: Neuroprotective activity in haloperidol-induced catalepsy Mus musculus Swiss albino (mouse) model assessed as Cu-Zn-SOD activity per gram protein in brain homogenate at 100 mg/kg, po administered 30 min before haloperidol challenge measured after 4 hr post challenge by NBT reduction assay (reference value: 1.794 +/- 0.03 U/g protein)
- Type: functional
Give just the number in U/g protein; leave the unit off.

Previously resolved entries follow.
input smiles: O=[N+]([O-])c1ccccc1NC(=S)Nc1nc2c(ccc3ccccc32)s1
Activity (U/g protein): 1.398

input smiles: COc1ccccc1NC(=O)Nc1nc2c(ccc3ccccc32)s1
Activity (U/g protein): 1.622

input smiles: COc1ccc(NC(=O)Nc2nc3c(ccc4ccccc43)s2)c(OC)c1
Activity (U/g protein): 1.469

// next item, Activity requested
Problem: Query for Mus musculus: what Activity does the record show for `COc1ccccc1NC(=S)Nc1nc2c(ccc3ccccc32)s1` ?
Solution: 1.684

----------
- Tested on: Mus musculus
- test details: Neuroprotective activity in Mus musculus Swiss albino (mouse) model assessed as reduction in haloperidol-induced catalepsy at 100 mg/kg, ip administered 30 min before haloperidol challenge measured for 30 to 180 min
- Assay type: functional
- Design: scale not given: the % may be the effect or the level left
- assay setup: route intraperitoneal
observed property: Activity (%)
Give just the number in %; leave the unit off.

Previously resolved entries follow.
input smiles: S=C(Nc1ccc(Cl)cc1)Nc1nc2c(ccc3ccccc32)s1
Activity [%]: 27.88
//
input smiles: O=C(Nc1nc2c(ccc3ccccc32)s1)Nc1ccccc1Cl
Activity [%]: 37.37
//
input smiles: O=C(Nc1ccc(F)cc1)Nc1nc2c(ccc3ccccc32)s1
Activity [%]: 30.3
//
input smiles: COc1ccccc1NC(=O)Nc1nc2c(ccc3ccccc32)s1
Activity [%]: 76.9

Problem: Query for Mus musculus: what Activity does the record show for `COc1ccc(NC(=O)Nc2nc3c(ccc4ccccc43)s2)cc1` ?
Solution: 58.51

Problem: Query for Mus musculus: what Activity does the record show for `O=C(Nc1nc2c(ccc3ccccc32)s1)Nc1ccccc1[N+](=O)[O-]` ?
Solution: 72.05

Problem: Query for Mus musculus: what Activity does the record show for `O=C(Nc1ccc(Br)cc1)Nc1nc2c(ccc3ccccc32)s1` ?
Solution: 37.76

----------
- Tested on: Mus musculus
- test details: Neuroprotective activity in Mus musculus Swiss albino (mouse) model assessed as reduction in haloperidol-induced catalepsy at 100 mg/kg, ip administered 30 min before haloperidol challenge measured for 30 to 180 min
- Format: functional
- Design: scale not given: the % may be the effect or the level left
- assay setup: route intraperitoneal
observed property: Activity (%)
Give just the number in %; leave the unit off.

input smiles: O=C(Nc1ccc(Cl)cc1)Nc1nc2c(ccc3ccccc32)s1
system tested: Mus musculus
Activity (%): 38.61
//
input smiles: O=[N+]([O-])c1ccc(NC(=S)Nc2nc3c(ccc4ccccc43)s2)cc1
system tested: Mus musculus
Activity (%): 32.13

Problem: Please look up its Activity: `Fc1ccccc1NC(=S)Nc1nc2c(ccc3ccccc32)s1`
Solution: 38.35

Problem: Please look up its Activity: `Cc1ccccc1NC(=S)Nc1nc2c(ccc3ccccc32)s1`
Solution: 49.87

Problem: Please look up its Activity: `Cc1ccccc1NC(=O)Nc1nc2c(ccc3ccccc32)s1`
Solution: 47.64
